B1: ZNF449 (parent)
chain: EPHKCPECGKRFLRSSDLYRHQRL

# Variants of: B1
# ASSAY_NAME: protein stability index of a GFP-peptide fusion (GPS, HEK-293T) (PSI 1-6); higher = more stable;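 note: lentivirally expressed fusions sorted by FACS into six bins by GFP to DsRed ratio, PSI derived from sequencing read proportions per bin multiplied by bin number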
# TEST_CONDITIONS: c terminus: a fixed tail appended
Consider the following partition of reported protein stability index into named classes: bottom (below 3), middle (3 to below 4), top (4 or more)

RESIDUE_CODES	CLASS_NAME
EPHKCPECGKRFLRSSDLYRHQRD	top
EPHKCPECGKRFLRSSDLYRHQYL	middle
EPHKCPECGKRFLRSSDLYRHQML	middle
EPHKCPECGKRFLRSNDLYRHQRL	middle
EPHKCPECGTRFLRSSDLYRHQRL	middle
EPHKCLECGKRFLRSSDLYRHQRL	middle
EPHKCPECGKRFFRSSDLYRHQRL	middle
EPHKCPECGKRFLRSSDLYRYQRL	bottom
EPHKCPECGKRFLRSSDLYCHQRL	middle
EPHKCPECGKRFLRSLDLYRHQRL	bottom
EPHKCPECGKQFLRSSDLYRHQRL	top
EQHKCPECGKRFLRSSDLYRHQRL	middle
EPHKCPECGKRFLQSSDLYRHQRL	middle
EPHKCPECGKRFLRSSDLYRRQRL	bottom
EPHKCPECGKRFLRLSDLYRHQRL	middle
EPHKCPACGKRFLRSSDLYRHQRL	middle
EPHKCPECGKRFLRSSDLYRSQRL	bottom
EPHKCPEQGKRFLRSSDLYRHQRL	middle
EPHKCPECGKRFLRSSDLRRHQRL	middle
EPHKCPECGKRFLRSSDLERHQRL	top
